Every entry's value here was drawn from patent US10273241B2.

Tested on: MOLM-14
Procedure Summary: Cell growth assay, MOLM-14 AML cell line
Format: cell-based, human
Measurement Conditions: Homo sapiens, MOLM-14, 240 h; day 10; cells passaged, fresh compound added on days 3 and 7; read-out: MOL M14 G150 day 10
Property: GI50 (nM)
One number for each entry, in nM.

Below, each entry is followed by its recorded GI50 result.
- C[C@]12CC=C3C=C4CC[C@@H](N5CCOCC5)C[C@]45CCC3(O5)[C@@H]1CC[C@@H]2c1ccc2ccncc2c1 [15A, α-morpholine]: 20
- C[C@]12CC=C3C=C4CC[C@H](N5C[C@H](O)C[C@H]5C(=O)O)C[C@]45CCC3(O5)[C@@H]1CCC2c1ccc2ccncc2c1 (stereo partly drawn) [65B]: 16
- CC(C)N[C@H]1CCC2=CC3=CC[C@]4(C)[C@@H](c5ccc6ccncc6c5)CC[C@H]4[C@@]34CC[C@]2(C1)O4 [32B, β-isopropylamine]: 55
- C[C@]12CC=C3C=C4CC[C@@H](N5CCC5)CC45CC[C@]3(O5)[C@@H]1CC[C@@H]2c1ccc2ccncc2c1 [18A, α-azetidine]: 3

Dear colleague, could you please provide GI50 for the molecules listed below?
1. CN(CC(F)F)[C@H]1CCC2=CC3=CC[C@]4(C)C(c5ccc6ccncc6c5)CC[C@H]4[C@@]34CC[C@]2(C1)O4 (stereo partly drawn) [30B, β-2,2-difluoroethylmethylamine]
2. C[C@]12CC=C3C=C4CC[C@H](N5CCC6(COC6)C5)C[C@]45CCC3(O5)[C@@H]1CCC2c1ccc2ccncc2c1 (stereo partly drawn) [38B, β-2-oxa-6-azaspiro[3.4]octane]

55
10

---

Procedure Summary: Pharmacokinetic study of 14A in male CD-1 mice
Format: in vivo
Measurement Conditions: CD-1, mouse, blood, 10 mg/kg PO in 20% HPCD, read-out: T1/2 after oral dosing (converted)
Property: half-life

Requested read-out: half-life. Entry: CN(C)[C@@H]1CCC2=CC3=CC[C@]4(C)[C@@H](c5ccc6ccncc6c5)CC[C@H]4C34CC[C@]2(C1)O4 [14A, α-dimethylamine]
~5 h

---

Exercise: for every item that follows, state its recorded GI50.
System: MOLM-14
Procedure Summary: Cell growth assay, MOLM-14 AML cell line
Format: cell-based, human
Measurement Conditions: Homo sapiens, MOLM-14, 240 h; day 10; cells passaged, fresh compound added on days 3 and 7; read-out: MOL M14 G150 day 10
Numbers only, in µM.

Below, each entry is followed by its recorded GI50 result.
• C[C@]12CC=C3C=C4CC[C@@H](N)CC45CC[C@]3(O5)[C@@H]1CC[C@@H]2c1ccc2ccncc2c1 [62A, α-primaryamine] = 0.005
• C[C@]12CC=C3C=C4CC[C@H](N5CC[C@@H](F)C5)C[C@]45CC[C@]3(O5)[C@@H]1CC[C@@H]2c1ccc2ccncc2c1 [35B, β-(R)-3-fluoropyrrolidine] = 0.16
• CN(C1CC1)[C@H]1CCC2=CC3=CC[C@]4(C)C(c5ccc6ccncc6c5)CC[C@H]4C34CC[C@]2(C1)O4 (stereo partly drawn) [40B, β-Cyclopropylmethylamine] = 0.025
• CC(C)(C)N[C@H]1CCC2=CC3=CC[C@]4(C)C(c5ccc6ccncc6c5)CC[C@H]4C34CC[C@]2(C1)O4 (stereo partly drawn) [43B, β-t-butylamine] = 0.15
• C[C@]12CC=C3C=C4CC[C@@H](N5CC(O)C5)C[C@]45CCC3(O5)[C@@H]1CC[C@@H]2c1ccc2ccncc2c1 [70A, α-hydroxyazetidine] = 0.012

Below: the item to evaluate.
Requested read-out: GI50. Entry: CN(CC1(C)COC1)[C@H]1CCC2=CC3=CC[C@]4(C)[C@@H](c5ccc6ccncc6c5)CC[C@H]4[C@@]34CCC2(C1)O4 [42B]
0.02

---

Procedure Summary: Pharmacokinetic study of 14A in male CD-1 mice
Type: in vivo
Measurement Conditions: CD-1, mouse, blood, iv, 3 mg/kg, 3 mg/kg IV, read-out: Vss
Property: Vd (L/kg)
Numbers only, in L/kg.

Requested read-out: Vd. Entry: CN(C)[C@@H]1CCC2=CC3=CC[C@]4(C)[C@@H](c5ccc6ccncc6c5)CC[C@H]4C34CC[C@]2(C1)O4 [14A, α-dimethylamine]
11.7

---

Procedure Summary: Pharmacokinetic study of 14A in male CD-1 mice
Format: in vivo
Measurement Conditions: CD-1, mouse, blood, oral, 10 mg/kg, 10 mg/kg PO vs 3 mg/kg IV, read-out: oral bioavailability
Property: bioavailability (%)
Give bare numbers, in %.

Requested read-out: bioavailability. Entry: CN(C)[C@@H]1CCC2=CC3=CC[C@]4(C)[C@@H](c5ccc6ccncc6c5)CC[C@H]4C34CC[C@]2(C1)O4 [14A, α-dimethylamine]
44

---

Tested on: MOLM-14
Procedure Summary: Cell growth assay, MOLM-14 AML cell line
Assay type: cell-based, human
Measurement Conditions: Homo sapiens, MOLM-14, 240 h; day 10; cells passaged, fresh compound added on days 3 and 7; read-out: MOL M14 G150 day 10
Threshold 0.01 µM. GI50 below it: TRUE. GI50 at it or above: FALSE.

• C[C@]12CC=C3C=C4CC[C@H](N)CC45CC[C@]3(O5)[C@@H]1CC[C@@H]2c1ccc2ccncc2c1 [62B, β-primaryamine] = FALSE
• C[C@]12CC=C3C=C4CC[C@H](N5CCC(F)(F)C5)C[C@]45CC[C@]3(O5)[C@@H]1CC[C@@H]2c1ccc2ccncc2c1 [37B, β-3,3-difluoropyrrolidine] = FALSE
• C[C@]12CC=C3C=C4CC[C@@H]([N+](C)(C)[O-])CC45CC[C@]3(O5)[C@@H]1CC[C@@H]2c1ccc2ccncc2c1 [14ANO, 14A-N-Oxide] = FALSE
• C[C@]12CC=C3C=C4CC[C@@H](NS(C)(=O)=O)C[C@]45CCC3(O5)[C@@H]1CC[C@@H]2c1ccc2ccncc2c1 [73A, α-methylsulfonamide] = FALSE

--- query ---
Strictly below 0.01 µM in GI50? [2H]C([2H])([2H])N([C@H]1CCC2=CC3=CC[C@]4(C)C(c5ccc6ccncc6c5)CC[C@H]4[C@@]34CC[C@]2(C1)O4)C([2H])([2H])[2H] (stereo partly drawn) [26B, β-deuterodimethylamine]
TRUE
